Tested on: NCI/ADR-RES ovarian
Please reply with one of these outcomes: active, inactive

Worked cases, answers included:
COc1ccc(C(=O)/C=C/c2c(OC)cc(OC)cc2OC)c(OC)c1 | inactive
CCC(=O)O[C@@H]([C@H](C)[C@H]1OC(CC)=C(C)C(=O)[C@@H]1C)[C@@H](C)C(=O)CC | inactive
OCc1cn(Cc2ccc(Cl)cc2)c2ccccc12 | inactive
CCN(Cc1cccnc1)c1ccc(CO)c(Cl)c1 | inactive

Each compound tested received a call. Report the one for Nc1ccn(C2OC(CO)C(O)C2(F)F)c(=O)n1 (centres undefined) .
active

Each compound tested received a call. Report the one for O=C1c2ccccc2-c2c1c1ccc([N+](=O)[O-])cc1c(=O)n2CCCN1CCOCC1 .
active

Each compound tested received a call. Report the one for COC1C(O)CC(OC2CC(OC3CC(O[C@@H]4C(=O)c5c(cc6cc(OC7CC(OC8CC(O)C(O)C(C)O8)C(O)C(C)O7)c(C)c(O)c6c5O)CC4[C@H](OC)C(=O)C(C)=O)OC(C)C3O)OC(C)C2O)OC1C (some centres undefined) .
inactive

Each compound tested received a call. Report the one for Cc1ccc(/C=C2\COc3ccc(O)c(O)c3C2=O)cc1 .
active

Each compound tested received a call. Report the one for Cc1nc2ccc(Nc3nc(Cl)nc(Nc4ccc(F)cc4)n3)cc2n1Cc1ccccc1 .
inactive

----------
System: SW-620 colon
Experiment: NCI tumour cell line growth inhibition, 48 h
measured_attribute: TGI

Which TGI is listed for OC1c2c(ccc3c2CCC3)CC12Cc1ccccc1C2 (stereo unspecified) ?
32.8 µM

Which TGI is listed for CC[C@]1(O)CC2CN(CCCc3c([nH]c4ccccc34)[C@@](C(=O)OC)(c3cc4c(cc3OC)N(C)C3C45CCN4CC=C[C@](CC)(C45)C(OC(C)=O)[C@@]3(O)C(=O)OC)C2)C1 (stereo partly specified) ?
> 10 µM

Which TGI is listed for CCOc1ccc(Nc2nc(C)c(C(=O)/C=C/c3ccc(Cl)cc3Cl)s2)cc1 ?
38.7 µM

Which TGI is listed for Cc1cc(S(=O)(=O)Nc2n[nH]c(-c3ccc(Cl)cn3)n2)c(S)cc1Cl ?
> 100 µM

Which TGI is listed for O=C(O)c1ccc(Cc2ccccc2C(=O)O)cc1 ?
> 100 µM

Which TGI is listed for CCSC(=O)N1c2ccc(OC)cc2C=CC1C#N (stereo unspecified) ?
199 µM

Which TGI is listed for CN(C)c1ccc(C(C#N)NNC(=O)Cc2ccccc2)cc1 (stereo unspecified) ?
> 100 µM

Which TGI is listed for C#CCCCC(=C)C[C@@H]1OC(=O)[C@H](C)[C@@H]1O ?
> 100 µM

Which TGI is listed for NC(=O)c1nnsc1N/N=C/c1ccc([N+](=O)[O-])cc1 ?
> 100 µM

----------
The entries below are paired with their reported GI50.
Tested on: SN12C renal
Experiment: NCI tumour cell line growth inhibition, 48 h

Answered cases to consult:
Cc1cc2c(cc1C)[n+](=O)c(C(=O)C(C)(C)C)c(C(F)(F)F)n2[O-] | 14100 nM
C/C(=N\NC(=O)c1ccc(C(C)(C)C)cc1)c1ccc(O)cc1O | 1240 nM
Cc1ccc(/C=C2\COc3ccc(O)c(O)c3C2=O)cc1 | 370 nM
CCOC(=O)c1ccc2c(c1)nc(-c1ccc(Cl)cc1)n2-c1cc(C(C)(C)C)[nH]n1 | 3330 nM

Which GI50 is listed for Cc1ccc(C(=Nc2ccccc2)N=P(c2ccccc2)(c2ccccc2)c2ccccc2)cc1 ?
1410 nM

----------
Tested on: MOLT-4 leukemia
Experiment: NCI tumour cell line growth inhibition, 48 h
The entries below are paired with their reported TGI.

Which TGI is listed for CC(C)(C)OC/C=C(\Br)CO ?
> 100 µM

Which TGI is listed for Cc1cc(C(=O)CBr)c(CN2C(=O)c3ccccc3C2=O)c(=O)n1C ?
5.57 µM

Which TGI is listed for CC[C@]1(O)CC2CN(CCCc3c([nH]c4ccccc34)[C@@](C(=O)OC)(c3cc4c(cc3OC)N(C)C3C45CCN4CC=C[C@](CC)(C45)C(OC(C)=O)[C@@]3(O)C(=O)OC)C2)C1 (stereo not given in full) ?
> 10 µM

Which TGI is listed for O=C1Nc2ccc(Cl)cc2C(=O)N2CCC[C@@H]12 ?
> 100 µM

Which TGI is listed for Cc1cc(-c2ccc[nH]2)on1 ?
> 100 µM

----------
Test system: HL-60(TB) leukemia
Experiment: NCI tumour cell line growth inhibition, 48 h
measured_attribute: TGI

NC1CCCCC1 | 380 µM
S=C(S)N1CCOCC1 | 14.3 µM
CCCCCCSC[C@H](OC(C)=O)[C@@H](OC(C)=O)[C@@H](OC(C)=O)[C@@H](COC(C)=O)OC(C)=O | > 100 µM
CCc1ccccc1NC(=O)C1=C(C)NC(C)=C(C(=O)Nc2ccccc2CC)C1c1cccc([N+](=O)[O-])c1 | 88.7 µM

# get_value(readout= TGI, system= HL-60(TB) leukemia) for CS(=O)(=O)Nc1ccc(Nc2c3ccccc3nc3cc([N+](=O)[O-])ccc23)cc1
5.88 µM

----------
Test system: OVCAR-8 ovarian
Assay: NCI tumour cell line growth inhibition, 48 h
The entries below are paired with their reported TGI.
Express your answer in µM, writing the number without its unit.

Cc1cc2c(cc1C)[n+](=O)c(C(=O)C(C)(C)C)c(C(F)(F)F)n2[O-] | 15.5
N#CC12CC3=C(N=C1NC1=C(CCc4ccccc41)C2)c1ccccc1CC3 (configuration not stated) | 15.7
Clc1ccc(C2=Nc3ccccc3SC(c3cccs3)C2)cc1 (configuration not stated) | 30.4
CCCCCCCCCCCCCCCCCC(=O)NCC(COP(=O)([O-])OCC[N+](C)(C)C)OC (configuration not stated) | 23.6

# get_value(readout= TGI, system= OVCAR-8 ovarian) for Cc1nc2ccc(Nc3nc(Cl)nc(Nc4ccc(F)cc4)n3)cc2n1Cc1ccccc1
14.1

----------
Test system: HL-60(TB) leukemia
Test: NCI tumour cell line growth inhibition, 48 h
measured_attribute: TGI

C=C1C(=O)OC2C1C(=O)C/C(C)=C/CCC1(C)OC21 (stereo not given) | 7.23 µM

Which TGI is listed for O=C1/C(=N\O)C2CCC1C2 (stereo not given) ?
> 100 µM

Which TGI is listed for CS(=O)(=O)c1ccc(Oc2cc(F)cc(C#N)c2)c2c1[C@H](O)[C@H](F)[C@H]2F ?
> 100 µM

Which TGI is listed for CN(C)C(=S)/N=C1\SC(=Nc2ccccc2)C(=Nc2ccccc2)N1c1ccc([N+](=O)[O-])cc1 ?
> 100 µM

Which TGI is listed for NC(=O)c1ncn2c1CNC(=O)C2 ?
> 100 µM

Which TGI is listed for CCCCCCCCCCCCCCCCSC(=NCC)NCC ?
3.12 µM

Which TGI is listed for CC(C)(C)OC(=O)NC(Cc1ccc(OCc2ccccc2)cc1)C(=O)NC(COCc1ccccc1)C(=O)Oc1c(Cl)c(Cl)c(Cl)c(Cl)c1Cl (stereo not given) ?
> 100 µM

Which TGI is listed for COc1ccc([As]=[As]c2ccc(OC)c(NCS(=O)(=O)O)c2)cc1NCS(=O)(=O)O (stereo not given) ?
11.7 µM

Which TGI is listed for O=C(COc1ccc2c(=O)cc(-c3ccc(Cl)cc3)oc2c1)N1CCN(c2ccccc2)CC1 ?
> 100 µM

Which TGI is listed for CCOC(=O)/C(ON)=C(/CC/C(C(=O)OC)=C(\ON)C(=O)OCC)C(=O)OC ?
> 100 µM

----------
Test system: SR leukemia
Please reply with one of these outcomes: 1 (active), 0 (inactive)

Each compound tested received a call. Report the one for COc1ccc(-c2cc(=O)oc3ccc(Cl)cc23)cc1F .
1

Each compound tested received a call. Report the one for CS(=O)(=O)Nc1ccc(Nc2c3ccccc3nc3cc([N+](=O)[O-])ccc23)cc1 .
1

----------
System: CCRF-CEM leukemia
Test: NCI tumour cell line growth inhibition, 48 h
The entries below are paired with their reported TGI.

COc1ccc([As]=[As]c2ccc(OC)c(NCS(=O)(=O)O)c2)cc1NCS(=O)(=O)O (stereo not given) | 3.14 µM
Cc1ccc(C2C(C(=O)C(C)(C)C)N2S(=O)(=O)c2ccc(C)cc2)cc1 (stereo not given) | 78.1 µM
Nc1cc(C(=O)NC2C3CC4CC(C3)CC2C4)[nH]c(=S)n1 (stereo not given) | > 100 µM
COc1ccc(-c2cc(=O)oc3ccc(Cl)cc23)cc1F | > 100 µM
CCCCCCSC[C@H](OC(C)=O)[C@@H](OC(C)=O)[C@@H](OC(C)=O)[C@@H](COC(C)=O)OC(C)=O | > 100 µM
O=C1Nc2ccccc2/C1=C/C(=O)c1ccc(N2CCCC2)cc1 | > 100 µM
O=c1[nH]c2nc3ccccc3n2c(O)c1-c1ccccc1 | > 100 µM
O=C1c2ccccc2-c2c1c1ccc([N+](=O)[O-])cc1c(=O)n2CCCN1CCOCC1 | 0.121 µM

Which TGI is listed for O=C(O)c1ccc(Cc2ccccc2C(=O)O)cc1 ?
> 100 µM

Which TGI is listed for CCOC(NC(=O)CC)(C(F)(F)F)C(F)(F)F ?
> 100 µM
